All values here come from patent US20250376519A1.

# assayTarget: T1, human DLL3 (ACRO, DLL3-H52H4) (human, UniProt Q9NYJ7 27-492)
# T1 construct: Bought
# T1 sequence: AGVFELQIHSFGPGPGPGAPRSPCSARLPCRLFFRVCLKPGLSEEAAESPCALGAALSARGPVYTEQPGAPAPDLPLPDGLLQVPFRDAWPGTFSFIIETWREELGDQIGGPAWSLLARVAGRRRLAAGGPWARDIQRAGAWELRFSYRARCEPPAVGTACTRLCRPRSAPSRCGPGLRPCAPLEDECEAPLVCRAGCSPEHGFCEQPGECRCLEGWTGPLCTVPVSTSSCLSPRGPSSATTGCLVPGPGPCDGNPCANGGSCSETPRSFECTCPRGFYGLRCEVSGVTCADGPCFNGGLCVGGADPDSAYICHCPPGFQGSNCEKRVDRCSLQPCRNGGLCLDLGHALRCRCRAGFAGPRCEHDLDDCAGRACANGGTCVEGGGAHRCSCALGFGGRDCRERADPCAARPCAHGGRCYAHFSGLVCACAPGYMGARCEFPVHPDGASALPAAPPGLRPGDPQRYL
# protocolDescription: SPR Biacore 8K, Ab captured on Protein A

{"binder": "hu6L2H1 (antibody, human IgG1, kappa, V domains shown) VH: EVQLVQSGAEVKKPGASVKVSCKASGYTFTDYYMNWVRQAPGQRLEWMGIINPYSGVTIYNHKFKGRVTITVDKSASTAYMELSSLRSEDTAVYYCARQDSLLDYAMDYWGQGTTVTVSS VL: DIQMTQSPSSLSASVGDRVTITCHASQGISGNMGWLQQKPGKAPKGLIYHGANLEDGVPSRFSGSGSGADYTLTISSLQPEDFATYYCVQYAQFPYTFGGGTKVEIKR", "scaleUnit": "M⁻¹ s⁻¹", "kon": 709000}
{"binder": "hu98L3H4 (antibody, human IgG1, kappa, V domains shown) VH: EVQLVESGGGLVQPGGSLRLSCAASGFTFSDYGIHWVRQAPGKGLEWVAYISSGGYTSYYADTVKGRFTISRDNAKNSLYLQMNSLRAEDTAVYYCARGDYEDIFYTMDYWGQGTTVTVSS VL: DIQMTQSPSSLSASVGDRVTITCRASRDITKFLNWYQQKPGGAVKLLIYYTSRLHSGVPSRFSGSGSGTDYTLTISSLQPEDFATYYCQQGNTLPWTFGGGTKVEIKR", "scaleUnit": "M⁻¹ s⁻¹", "kon": "1.36e+06"}
{"binder": "hu30L1H10 (antibody, human IgG1, kappa, V domains shown) VH: EVRLVQSGAEVKKPGASVKVSCKASGYTFTDYYMNWVRQSHGQSLEWMGIINPYTGDTSYNQKFRGRVTLTVDKSASTAYMELSSLRSEDTAVYYCARYHYGPHLEGYFDVWGQGTTVTVSS VL: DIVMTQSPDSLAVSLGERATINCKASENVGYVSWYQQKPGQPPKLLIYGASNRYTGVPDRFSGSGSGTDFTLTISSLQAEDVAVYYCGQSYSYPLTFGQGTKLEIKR", "scaleUnit": "M⁻¹ s⁻¹", "kon": 440000}
